assay: Volume of distribution at steady state in Sprague-Dawley rat at 2 mg/kg, iv; assay type: ADME, organism-based; parameters: dose 2 mg/kg, route intravenous; conditions: in vivo, read-out: Vdss
Label met when Vd is strictly below 5 L/kg; otherwise label not met.

# input I'd appreciate it if you could check whether `CCOC[C@@H](CC(C)C)NC(=O)[C@@H]1CNC[C@H](C(=O)N(c2ccc(C(C)C)cn2)C2CC2)C1.O=C(O)/C=C/C(=O)O` has Vd smaller than 5 L/kg.
# output not met

# input I'd appreciate it if you could check whether `CCOC[C@@H](CC(C)C)NC(=O)[C@@H]1CNC[C@H](C(=O)N(c2cc(OCC)c(CC)cn2)C2CC2)C1.O=C(O)C(O)C(O)C(=O)O` has Vd smaller than 5 L/kg.
# output met

# input I'd appreciate it if you could check whether `CCOC[C@@H](CC(C)C)NC(=O)[C@@H]1CNC[C@H](C(=O)N(c2cc3c(cc2F)OC(C)(C)C(=O)N3CCCOC)C2CC2)C1.Cl` has Vd smaller than 5 L/kg.
# output not met

# input I'd appreciate it if you could check whether `CCOC[C@@H](CC(C)C)NC(=O)[C@@H]1CNC[C@H](C(=O)N(c2ccc(C(C)C)cn2)C2CC2)[C@@H]1O.O=C(O)CCC(=O)O` has Vd smaller than 5 L/kg.
# output met

# input I'd appreciate it if you could check whether `CCOC[C@@H](CC(C)C)NC(=O)[C@@H]1CNC[C@H](C(=O)N(c2cc(OC)c(C(C)C)cn2)C2CC2)C1.O=C(O)C(O)C(O)C(=O)O` has Vd smaller than 5 L/kg.
# output met

# input I'd appreciate it if you could check whether `CCOC[C@@H](CC(C)C)NC(=O)[C@@H]1CNC[C@H](C(=O)N(c2cc(OCC)c(CC)cn2)C2CC2)[C@@H]1O.O=C(O)/C=C/C(=O)O` has Vd smaller than 5 L/kg.
# output met

# input I'd appreciate it if you could check whether `CCOC[C@@H](CC(C)C)NC(=O)[C@@H]1CNC[C@H](C(=O)N(c2cc(OCCCOC)c(C(C)C)cn2)C2CC2)C1.Cl` has Vd smaller than 5 L/kg.
# output not met

# input I'd appreciate it if you could check whether `CCOC[C@@H](CC(C)C)NC(=O)[C@@H]1CNC[C@H](C(=O)N(c2cc(OC)c(C(C)C)cn2)C2CC2)[C@@H]1O` has Vd smaller than 5 L/kg.
# output not met
